Molecular target: Interleukin-1 receptor-associated kinase 4 (Homo sapiens)
Sequence (Q9NWZ3 whole entry): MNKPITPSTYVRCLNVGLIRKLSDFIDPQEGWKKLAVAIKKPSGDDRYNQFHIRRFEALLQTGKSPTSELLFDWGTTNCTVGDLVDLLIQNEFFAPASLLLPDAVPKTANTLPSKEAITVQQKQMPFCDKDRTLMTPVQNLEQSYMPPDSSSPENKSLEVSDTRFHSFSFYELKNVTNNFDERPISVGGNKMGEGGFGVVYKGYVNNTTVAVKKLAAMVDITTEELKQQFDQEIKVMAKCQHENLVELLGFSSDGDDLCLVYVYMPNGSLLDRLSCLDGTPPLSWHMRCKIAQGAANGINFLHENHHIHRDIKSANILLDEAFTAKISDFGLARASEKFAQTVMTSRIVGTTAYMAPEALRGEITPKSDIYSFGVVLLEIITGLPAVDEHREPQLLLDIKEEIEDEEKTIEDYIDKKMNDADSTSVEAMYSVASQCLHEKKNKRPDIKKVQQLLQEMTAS
Outcome Measure: IC50

Please give the measured IC50 for this compound: OCC1CCC(n2cc(-n3cc(-c4cnn5ccc(C6CCOC6)nc45)nn3)c(C(F)F)n2)CC1 (stereo unspecified) [US20260028337, Compound 98A] < 100 nM

Where do the numbers come from? From BindingDB's records for patent US20260028337.
